Source: paper PMC8877593

system: planktonic C. albicans cells; experiment: Resazurin reduction / viability assay on planktonic C. albicans cells (broth microdilution, CLSI M27-A3); assay type: cell-based, Candida albicans (ATCC 90028); details: in comparison to Pom-1 (= 100%), 20 µg/mL peptide
Ends that are not written are not given here.
Exercise: state measured Antimycrobial Activity against Planktonic C. albicans Cells [%] at 20 µg/mL for each of the substances provided.
State the answer as a number, implicitly in %.

Query block: Quick one: Antimycrobial Activity against Planktonic C. albicans Cells [%] at 20 µg/mL of AGSIAWAIGSGLFGGAKLIKIKKY [Pom-1C] ?
Result block: 100

Query block: # Antimycrobial Activity against Planktonic C. albicans Cells [%] at 20 µg/mL lookup, item KCAGSIAWAIGSGLFGGAKLIKIKK [Pom-1E]
Result block: 153

Query block: Recorded Antimycrobial Activity against Planktonic C. albicans Cells [%] at 20 µg/mL of KCAGSIAWAIGSGLFGGAKLIKIKKY [Pom-1B] , please.
Result block: 160

Query block: May I ask what Antimycrobial Activity against Planktonic C. albicans Cells [%] at 20 µg/mL has been recorded for IGSGLFGGAKLIKIKKYIA [Pom-1D] ?
Result block: 97

Query block: Could you share which Antimycrobial Activity against Planktonic C. albicans Cells [%] at 20 µg/mL value was measured for AIGSGLFGGAKLIKIKKYI [Pom-1F] ?
Result block: 82

Query block: I'd like to know its Antimycrobial Activity against Planktonic C. albicans Cells [%] at 20 µg/mL. The substance in question is H-KCAGSIAWAIGSGLFGGAKLIKIKKYIAELGGLQ-OH [Pom-1]
Result block: 100

Query block: Quick one: Antimycrobial Activity against Planktonic C. albicans Cells [%] at 20 µg/mL for IGSGLFGGAKLIKIKKYI [Pom-1A] ?
Result block: 133

====

system: C. albicans biofilm; assay type: cell-based, Candida albicans (ATCC 90028); set-up: unit not given here; conditions: C. albicans, crystal violet, 24 h, 37 °C, without agitation, 2.5–20 µg/mL, Hill fit, triplicate; Table 1 (rounded)
Ends that are not written are not given here.
MEASUREMENT_TYPE: IC50 Values against Biofilm Formation
Would you mind answering with just the numeric figure?

Query block: Reported IC50 Values against Biofilm Formation for IGSGLFGGAKLIKIKKYI [Pom-1A] : what is it?
Result block: 0.95

Query block: Which IC50 Values against Biofilm Formation value is on record for KCAGSIAWAIGSGLFGGAKLIKIKK [Pom-1E] ?
Result block: 2.89

Query block: What value of IC50 Values against Biofilm Formation has been reported for the following substance? H-KCAGSIAWAIGSGLFGGAKLIKIKKYIAELGGLQ-OH [Pom-1]
Result block: 3.8

Query block: Which IC50 Values against Biofilm Formation is reported for this substance? AIGSGLFGGAKLIKIKKYI [Pom-1F]
Result block: 0.16

Query block: Sample AGSIAWAIGSGLFGGAKLIKIKKY [Pom-1C] — what was its IC50 Values against Biofilm Formation?
Result block: 0.08

Query block: Please give the measured IC50 Values against Biofilm Formation for this substance: KCAGSIAWAIGSGLFGGAKLIKIKKY [Pom-1B]
Result block: 0.008
